B1: HDV Ribozyme (parent)
chain: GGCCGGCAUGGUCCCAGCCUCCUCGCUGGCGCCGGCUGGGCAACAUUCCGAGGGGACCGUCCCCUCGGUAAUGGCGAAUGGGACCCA

Variants of: B1
Protocol Details: self-cleavage, relative activity (ratio to wild type); higher = more cleavage; co-transcriptional
Classify by measured self-cleavage: Condition met if it is equal to or exceeds 0.4, Condition not met if it is smaller.

Variant Spec: G5C C14A
Cat: Condition not met
--
Variant Spec: A8G C21A
Cat: Condition not met
--
Variant Spec: G1A G73A
Cat: Condition not met
--
Variant Spec: C21U U27G
Cat: Condition not met
--
Variant Spec: A56U G73C
Cat: Condition met
--
Variant Spec: U37A C48A
Cat: Condition not met
--
Variant Spec: U9C G28A
Cat: Condition not met
--
Variant Spec: G31C C36A
Cat: Condition not met
--
Variant Spec: C19U C57U
Cat: Condition not met
--
Variant Spec: C15U G81A
Cat: Condition met
--
Variant Spec: C15G A71G
Cat: Condition met
--
Variant Spec: C14A U65C
Cat: Condition met
--
Variant Spec: G34U C57G
Cat: Condition not met
--
Variant Spec: C15G G50C
Cat: Condition met
--
Variant Spec: C3G G25U
Cat: Condition not met
--
Variant Spec: A42G C84A
Cat: Condition met
--
Variant Spec: U27A C33G
Cat: Condition not met
--
Variant Spec: A42G G76A
Cat: Condition met
--
Variant Spec: A8G G81U
Cat: Condition not met
--
Variant Spec: G11A G59A
Cat: Condition not met
--
Variant Spec: G1U G29A
Cat: Condition not met
--
Variant Spec: C41U A87U
Cat: Condition met
--
Variant Spec: C21U A42G
Cat: Condition not met
--
Variant Spec: G28U C86U
Cat: Condition not met
--
Variant Spec: U20G G80U
Cat: Condition not met
--
Variant Spec: G5A C62G
Cat: Condition not met
--
Variant Spec: U27G A45G
Cat: Condition met
--
Variant Spec: C14A A45G
Cat: Condition met
--
Variant Spec: C3U C41U
Cat: Condition met
--
Variant Spec: C21A U37G
Cat: Condition not met
--
Variant Spec: C58A U60A
Cat: Condition met
--
Variant Spec: A8C C24G
Cat: Condition not met
--
Variant Spec: C14U C57G
Cat: Condition met
--
Variant Spec: A16U A78C
Cat: Condition not met
--
Variant Spec: G34C C57G
Cat: Condition not met
--
Variant Spec: A8U G82A
Cat: Condition not met
--
Variant Spec: G6A G54A
Cat: Condition met
--
Variant Spec: U47A G53A
Cat: Condition met
--
Variant Spec: G2C A16C
Cat: Condition not met
--
Variant Spec: G5C C26G
Cat: Condition not met
--
Variant Spec: A16C C30G
Cat: Condition not met
--
Variant Spec: C4A G82A
Cat: Condition not met
--
Variant Spec: C15G U79C
Cat: Condition not met
--
Variant Spec: C32G C64G
Cat: Condition not met
--
Variant Spec: C49G A71G
Cat: Condition met
--
Variant Spec: C3G G10C
Cat: Condition not met
--
Variant Spec: C48G G53A
Cat: Condition met
--
Variant Spec: C48A C58U
Cat: Condition met
--
Variant Spec: A43C A56U
Cat: Condition met
--
Variant Spec: C15A G59A
Cat: Condition met
--
Variant Spec: U27A A83U
Cat: Condition met
--
Variant Spec: C3A C63A
Cat: Condition met
--
Variant Spec: C58G G59U
Cat: Condition met
--
Variant Spec: G11A G55A
Cat: Condition met
--
Variant Spec: C26A U46C
Cat: Condition met
--
Variant Spec: C19A C57U
Cat: Condition not met
--
Variant Spec: C30U C57A
Cat: Condition met
--
Variant Spec: G53C U69C
Cat: Condition met
--
Variant Spec: G2C G53U
Cat: Condition not met
--
Variant Spec: C22G A77C
Cat: Condition not met
--
Variant Spec: G1U G31A
Cat: Condition not met
--
Variant Spec: C22U G55C
Cat: Condition met
--
Variant Spec: U47A C57U
Cat: Condition met
--
Variant Spec: C26U G67C
Cat: Condition met
--
Variant Spec: U69C G81A
Cat: Condition not met
--
Variant Spec: C15U C66A
Cat: Condition met
--
Variant Spec: C4U A45C
Cat: Condition met
--
Variant Spec: A43C G54A
Cat: Condition met
--
Variant Spec: G39A C75A
Cat: Condition not met
--
Variant Spec: C41G U69C
Cat: Condition met
--
Variant Spec: C30A C61U
Cat: Condition met
--
Variant Spec: C13A C61U
Cat: Condition not met
--
Variant Spec: U23A C33U
Cat: Condition met
--
Variant Spec: U65C G68U
Cat: Condition met
--
Variant Spec: C84A C86U
Cat: Condition met
--
Variant Spec: U46G G67A
Cat: Condition met
--
Variant Spec: U47A C75G
Cat: Condition not met
--
Variant Spec: C13G C21A
Cat: Condition not met
--
Variant Spec: G17C G34C
Cat: Condition not met
--
Variant Spec: C57A U65A
Cat: Condition met
--
Variant Spec: G54C G82A
Cat: Condition not met
--
Variant Spec: C13U U20A
Cat: Condition not met
--
Variant Spec: C44U A56U
Cat: Condition met
--
Variant Spec: C44A C58U
Cat: Condition met
--
Variant Spec: G5C A56U
Cat: Condition not met
--
Variant Spec: A56U C63A
Cat: Condition met
--
Variant Spec: G2A U9A
Cat: Condition not met

Where do these numbers come from? They come from the RNAGym collection of RNA variant scans (doi:10.7554/elife.80360).
